Test: in vivo
Settings: mouse, in vivo, po
Kindly state LD50 for each of the entries shown.

Quick note, LD50 for O=C(NC[C@H]1CC[C@H](C(=O)O)CC1)c1ccc(O)c(O)c1 landed at > 3000 mg/kg

Kindly note the recorded LD50 for O=C(O)c1ccc(NC(=O)c2ccc(O)c(O)c2)cc1 , which is > 3000 mg/kg

The measured LD50 associated with O=C(O)CCCCCNC(=O)c1ccc(O)c(O)c1 reads > 3000 mg/kg
